Target: GLUT3 N413A (Homo sapiens, UniProt P11169, N413A/N43T)
Construct: His10 (N)
Sequence (P11169 1-496 N43T/N413A): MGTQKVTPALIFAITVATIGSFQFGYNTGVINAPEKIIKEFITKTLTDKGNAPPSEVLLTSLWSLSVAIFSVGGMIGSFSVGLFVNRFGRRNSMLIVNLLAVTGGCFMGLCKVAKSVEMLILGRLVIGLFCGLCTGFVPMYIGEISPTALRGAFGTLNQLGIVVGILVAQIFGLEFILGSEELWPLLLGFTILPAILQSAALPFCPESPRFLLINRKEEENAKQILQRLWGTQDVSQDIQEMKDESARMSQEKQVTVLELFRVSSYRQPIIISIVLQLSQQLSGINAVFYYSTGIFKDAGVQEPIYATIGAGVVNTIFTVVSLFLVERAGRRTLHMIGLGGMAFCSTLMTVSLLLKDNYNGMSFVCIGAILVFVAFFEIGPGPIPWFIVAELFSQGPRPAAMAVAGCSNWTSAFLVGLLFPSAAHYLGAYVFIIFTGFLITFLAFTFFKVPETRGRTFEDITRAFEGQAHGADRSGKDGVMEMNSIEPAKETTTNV
Test: MST binding assay, GLUT3 variant
Conditions: read-out: Kd of SA47
property name: Kd (nM)
I only need the number, in nM, no unit after it.

Problem: Kd for "COC(=O)CCNCc1ccccc1-n1ncc2c(N3CCN(c4cc(F)ccc4OC)CC3)ncnc21" ?
Solution: 810

###

Target: human GLUT3(N43T) (Homo sapiens, UniProt P11169, N43T)
Construct: His10 (N)
Assay: Proteoliposome-based counterflow assay, inhibition of D-[2-3H]-glucose transport
property name: IC50 (nM)
I only need the number, in nM, no unit after it.

Problem: IC50 for "COC(=O)CCNCc1ccccc1-n1ncc2c(N3CCN(c4cc(F)ccc4OC)CC3)ncnc21" ?
Solution: 823

###

Molecular target: GLUT3 W386A (Homo sapiens, UniProt P11169, N43T/W386A)
Construct: His10 (N)
Assay: MST binding assay, GLUT3 variant
Settings: read-out: Kd of SA47
property name: pKd
Please treat pKd as minus the base-10 logarithm of the molar concentration.

Problem: pKd for COC(=O)CCNCc1ccccc1-n1ncc2c(N3CCN(c4cc(F)ccc4OC)CC3)ncnc21 [SA47] ?
Solution: 4.52

###

Target: GLUT3 E378A (Homo sapiens, UniProt P11169, E378A/N43T)
Construct: His10 (N); made in house; host or cells: Sf9 insect cells (baculovirus)
Sequence (P11169 1-496 N43T/E378A): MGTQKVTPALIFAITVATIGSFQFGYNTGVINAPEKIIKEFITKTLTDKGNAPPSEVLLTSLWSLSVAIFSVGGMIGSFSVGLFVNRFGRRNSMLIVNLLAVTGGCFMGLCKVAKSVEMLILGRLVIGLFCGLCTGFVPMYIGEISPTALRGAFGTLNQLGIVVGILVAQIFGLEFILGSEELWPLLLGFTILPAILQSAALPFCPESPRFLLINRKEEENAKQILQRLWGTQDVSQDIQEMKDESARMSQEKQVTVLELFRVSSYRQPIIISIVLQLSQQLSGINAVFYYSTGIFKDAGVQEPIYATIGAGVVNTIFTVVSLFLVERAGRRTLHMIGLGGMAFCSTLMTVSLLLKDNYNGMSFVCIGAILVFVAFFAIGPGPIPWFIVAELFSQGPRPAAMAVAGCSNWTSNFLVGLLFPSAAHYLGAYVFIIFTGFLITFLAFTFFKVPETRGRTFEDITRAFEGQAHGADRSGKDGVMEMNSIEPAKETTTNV
Assay: MST binding assay, GLUT3 variant
Settings: read-out: Kd of SA47
property name: Kd (nM)
I only need the number, in nM, no unit after it.

Problem: Kd for "COC(=O)CCNCc1ccccc1-n1ncc2c(N3CCN(c4cc(F)ccc4OC)CC3)ncnc21" ?
Solution: 1100

###

Molecular target: GLUT3 Q159A (Homo sapiens, UniProt P11169, N43T/Q159A)
Construct: His10 (N)
Test: MST binding assay, GLUT3 variant
Conditions: read-out: Kd of SA47
property name: pKd
Please treat pKd as minus the base-10 logarithm of the molar concentration.

Problem: pKd for "COC(=O)CCNCc1ccccc1-n1ncc2c(N3CCN(c4cc(F)ccc4OC)CC3)ncnc21" ?
Solution: 5.39

###

Target: GLUT3 S71A (Homo sapiens, UniProt P11169, N43T/S71A)
Construct: His10 (N); made in house; host or cells: Sf9 insect cells (baculovirus)
Assay: biochemical
Assay type: binding
property name: pKd
Please treat pKd as minus the base-10 logarithm of the molar concentration.

Problem: pKd for "COC(=O)CCNCc1ccccc1-n1ncc2c(N3CCN(c4cc(F)ccc4OC)CC3)ncnc21" ?
Solution: 5.80

###

Target: WT GLUT3 (Homo sapiens, UniProt P11169, N43T)
Construct: His10 (N)
Sequence (P11169 1-496 N43T): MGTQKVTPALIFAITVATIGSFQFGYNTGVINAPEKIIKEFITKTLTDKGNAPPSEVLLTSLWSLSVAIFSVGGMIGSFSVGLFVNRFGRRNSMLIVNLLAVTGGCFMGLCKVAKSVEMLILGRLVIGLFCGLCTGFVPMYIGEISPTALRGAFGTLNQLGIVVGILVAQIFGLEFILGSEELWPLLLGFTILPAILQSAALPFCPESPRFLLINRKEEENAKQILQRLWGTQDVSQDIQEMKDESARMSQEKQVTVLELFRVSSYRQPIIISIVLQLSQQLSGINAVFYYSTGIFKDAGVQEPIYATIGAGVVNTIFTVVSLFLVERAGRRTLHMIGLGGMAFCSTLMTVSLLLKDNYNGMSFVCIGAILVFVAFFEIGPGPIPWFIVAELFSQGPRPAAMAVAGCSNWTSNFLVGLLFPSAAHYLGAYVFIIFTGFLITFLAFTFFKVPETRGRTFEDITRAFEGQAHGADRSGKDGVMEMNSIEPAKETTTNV
Assay: Microscale thermophoresis (MST) binding assay
Settings: WT GLUT3
Method: All mutants were generated by standard PCR-based strategy. Inhibitors with serial dilutions were mixed with indicated protein. […] MST analyses were conducted on a Monolith NT. […] The MST data was analyzed by Monolith NT.115.
property name: pKd
Please treat pKd as minus the base-10 logarithm of the molar concentration.

>>> endpoint_value("COC(=O)CCNCc1ccccc1-n1ncc2c(N3CCN(c4cc(F)ccc4OC)CC3)ncnc21")
6.50

Now consider a different compound.
Problem: pKd for "O=C(CCc1ccc(O)cc1)c1c(O)cc(O)cc1O" ?
Solution: 4.58

###

Biological target: GLUT3 F289A (Homo sapiens, UniProt P11169, F289A/N43T)
Construct: His10 (N)
Assay: MST binding assay, GLUT3 variant
Conditions: read-out: Kd of SA47
Description: All mutants were generated by standard PCR-based strategy. Inhibitors with serial dilutions were mixed with indicated protein. […] MST analyses were conducted on a Monolith NT. […] The MST data was analyzed by Monolith NT.115.
property name: Kd (nM)
I only need the number, in nM, no unit after it.

Problem: Kd for "COC(=O)CCNCc1ccccc1-n1ncc2c(N3CCN(c4cc(F)ccc4OC)CC3)ncnc21" ?
Solution: 164

###

Biological target: GLUT1 (Homo sapiens, UniProt P11166, N45T)
Sequence (P11166 whole entry N45T): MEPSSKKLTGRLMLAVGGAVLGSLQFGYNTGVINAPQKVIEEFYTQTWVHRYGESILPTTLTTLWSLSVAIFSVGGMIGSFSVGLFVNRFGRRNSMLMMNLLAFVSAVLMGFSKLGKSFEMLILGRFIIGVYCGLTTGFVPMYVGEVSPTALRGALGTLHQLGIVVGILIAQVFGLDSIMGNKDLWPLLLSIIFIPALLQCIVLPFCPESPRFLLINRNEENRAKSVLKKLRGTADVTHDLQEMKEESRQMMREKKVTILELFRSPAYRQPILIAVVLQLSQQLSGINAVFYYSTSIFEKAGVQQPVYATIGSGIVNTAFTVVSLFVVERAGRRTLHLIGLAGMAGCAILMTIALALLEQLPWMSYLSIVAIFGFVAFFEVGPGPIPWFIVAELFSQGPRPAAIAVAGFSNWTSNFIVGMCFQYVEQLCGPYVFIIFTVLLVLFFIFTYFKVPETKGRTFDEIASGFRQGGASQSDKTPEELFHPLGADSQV
Assay: Microscale thermophoresis (MST) binding assay
property name: pKd
Please treat pKd as minus the base-10 logarithm of the molar concentration.

Problem: What value of pKd on GLUT1 (Homo sapiens, UniProt P11166, N45T) does "COC(=O)CCNCc1ccccc1-n1ncc2c(N3CCN(c4cc(F)ccc4OC)CC3)ncnc21" have?
Solution: 6.51

###

List of Kd values.
Target: GLUT3exo (GLUT3 S64W and I305W) (Homo sapiens, UniProt P11169, I305W/N43T/S64W)
Construct: His10 (N)
Test: biochemical
I only need the number, in µM, no unit after it.

>>> endpoint_value("O=C(CCc1ccc(O)cc1)c1c(O)cc(O)cc1O [phloretin]")
15.5

Now consider a different molecule.
Problem: Kd for COC(=O)CCNCc1ccccc1-n1ncc2c(N3CCN(c4cc(F)ccc4OC)CC3)ncnc21 [SA47] ?
Solution: 0.314

###

Biological target: GLUT3 F70A (Homo sapiens, UniProt P11169, F70A/N43T)
Assay: biochemical
property name: pKd
Please treat pKd as minus the base-10 logarithm of the molar concentration.

Problem: What value of pKd on GLUT3 F70A (Homo sapiens, UniProt P11169, F70A/N43T) does "COC(=O)CCNCc1ccccc1-n1ncc2c(N3CCN(c4cc(F)ccc4OC)CC3)ncnc21" have?
Solution: 5.82

###

Target: GLUT3 N32A (Homo sapiens, UniProt P11169, N32A/N43T)
Construct: His10 (N)
Sequence (P11169 1-496 N32A/N43T): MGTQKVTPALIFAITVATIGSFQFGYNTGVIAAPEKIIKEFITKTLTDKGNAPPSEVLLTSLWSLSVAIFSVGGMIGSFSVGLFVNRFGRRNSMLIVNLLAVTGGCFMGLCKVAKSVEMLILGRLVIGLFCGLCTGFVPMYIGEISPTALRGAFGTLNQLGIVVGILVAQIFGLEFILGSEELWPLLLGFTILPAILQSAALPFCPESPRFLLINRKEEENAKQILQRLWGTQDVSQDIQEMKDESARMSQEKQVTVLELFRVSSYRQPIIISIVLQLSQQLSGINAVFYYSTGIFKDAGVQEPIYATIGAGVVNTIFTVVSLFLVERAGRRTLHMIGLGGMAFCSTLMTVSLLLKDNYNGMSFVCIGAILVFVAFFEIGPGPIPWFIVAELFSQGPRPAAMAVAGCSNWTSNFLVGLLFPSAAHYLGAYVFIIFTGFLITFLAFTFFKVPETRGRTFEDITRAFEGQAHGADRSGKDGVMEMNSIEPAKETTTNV
Experiment: MST binding assay, GLUT3 variant
Conditions: read-out: Kd of SA47
property name: Kd (nM)
I only need the number, in nM, no unit after it.

Problem: Kd for "COC(=O)CCNCc1ccccc1-n1ncc2c(N3CCN(c4cc(F)ccc4OC)CC3)ncnc21" ?
Solution: 941

Attribution: paper PMC9098912
